Entries with their measured log10(MIC), system herpes simplex virus type 2:
In our notation, the value equals log10 of MIC in µg/mL.

Some solved cases for reference:
| input_smiles | log10(MIC) |
| --- | --- |
| CCc1noc(CC)c1Cc1ccc(OC)cc1 | 1.40 |
| CCc1noc(CC)c1CCCCCCOc1ccc(Br)cc1 | 1.08 |
| CCc1noc(CC)c1CCCCCCOc1ccc(OC)cc1[N+](=O)[O-] | 0.48 |
| CCc1noc(CC)c1CCCCOc1ccc(OC)cc1Cl | 0.78 |
| CCc1noc(CC)c1Cc1ccc(OC)cc1Cl | 1.08 |
| CCc1noc(CC)c1Cc1ccc(C)cc1 | 0.18 |

The record that follows has no log10(MIC) shown yet.
Name the reported log10(MIC) value associated with the molecule "CCc1noc(CC)c1CCCCCCOc1ccc(OC)cc1Cl"
0.78
